- Assay: oxidation-reduction potential (ORP) measurement of the solution
- Assay type: physicochemical
Mark Fulfilled only when ORP of the solution stays strictly below 400 mV. Values equal to the cut-off are Not fulfilled.

>>> print(df.to_string())
                                   molecule  assigned_label
0         OO [0.1% H2O2, hydrogen peroxide]       Fulfilled
1  OO [Example 3 starting solution, hydrogen peroxide]       Fulfilled
2          OO [10% H2O2, hydrogen peroxide]   Not fulfilled
3           OO [5% H2O2, hydrogen peroxide]   Not fulfilled

Okay, next one:
Strictly below 400 mV in ORP of the solution? OO [0.5% H2O2, hydrogen peroxide]
Fulfilled

* * *

- Assay: electrical conductivity measurement of the solution
- Format: physicochemical
Value kind: conductivity (μS/cm)
Field: numeric (μS/cm). Do not append units.

Would you kindly share the measured conductivity for OO [5% H2O2, hydrogen peroxide] ?
90

Item under review: OO [10% H2O2, hydrogen peroxide] . Reported conductivity?
110

Give the measured conductivity of OO [0.1% H2O2, hydrogen peroxide] .
20

Can you share its conductivity? I mean this compound: OO [3% H2O2, hydrogen peroxide]
60

* * *

- Assay: pH measurement of the solution
- Format: physicochemical
Value kind: pH of the solution

                                   molecule  test_value
0  OO [Example 3 starting solution, hydrogen peroxide]         4.5

// switching to the query molecule
Given the entry OO [Example 1 solution before activation, hydrogen peroxide] , report its measured pH of the solution.
5.8
